Molecular target: recombinant rat GluN1/GluN2C (Rattus norvegicus, UniProt P35439+Q00961)
Construct: expressed in transfected cells; host or cells: Xenopus laevis oocytes injected with cRNA (GluN1:GluN2 ratio 1:2)
Sequence (Q00961 20-1237, other chains not shown): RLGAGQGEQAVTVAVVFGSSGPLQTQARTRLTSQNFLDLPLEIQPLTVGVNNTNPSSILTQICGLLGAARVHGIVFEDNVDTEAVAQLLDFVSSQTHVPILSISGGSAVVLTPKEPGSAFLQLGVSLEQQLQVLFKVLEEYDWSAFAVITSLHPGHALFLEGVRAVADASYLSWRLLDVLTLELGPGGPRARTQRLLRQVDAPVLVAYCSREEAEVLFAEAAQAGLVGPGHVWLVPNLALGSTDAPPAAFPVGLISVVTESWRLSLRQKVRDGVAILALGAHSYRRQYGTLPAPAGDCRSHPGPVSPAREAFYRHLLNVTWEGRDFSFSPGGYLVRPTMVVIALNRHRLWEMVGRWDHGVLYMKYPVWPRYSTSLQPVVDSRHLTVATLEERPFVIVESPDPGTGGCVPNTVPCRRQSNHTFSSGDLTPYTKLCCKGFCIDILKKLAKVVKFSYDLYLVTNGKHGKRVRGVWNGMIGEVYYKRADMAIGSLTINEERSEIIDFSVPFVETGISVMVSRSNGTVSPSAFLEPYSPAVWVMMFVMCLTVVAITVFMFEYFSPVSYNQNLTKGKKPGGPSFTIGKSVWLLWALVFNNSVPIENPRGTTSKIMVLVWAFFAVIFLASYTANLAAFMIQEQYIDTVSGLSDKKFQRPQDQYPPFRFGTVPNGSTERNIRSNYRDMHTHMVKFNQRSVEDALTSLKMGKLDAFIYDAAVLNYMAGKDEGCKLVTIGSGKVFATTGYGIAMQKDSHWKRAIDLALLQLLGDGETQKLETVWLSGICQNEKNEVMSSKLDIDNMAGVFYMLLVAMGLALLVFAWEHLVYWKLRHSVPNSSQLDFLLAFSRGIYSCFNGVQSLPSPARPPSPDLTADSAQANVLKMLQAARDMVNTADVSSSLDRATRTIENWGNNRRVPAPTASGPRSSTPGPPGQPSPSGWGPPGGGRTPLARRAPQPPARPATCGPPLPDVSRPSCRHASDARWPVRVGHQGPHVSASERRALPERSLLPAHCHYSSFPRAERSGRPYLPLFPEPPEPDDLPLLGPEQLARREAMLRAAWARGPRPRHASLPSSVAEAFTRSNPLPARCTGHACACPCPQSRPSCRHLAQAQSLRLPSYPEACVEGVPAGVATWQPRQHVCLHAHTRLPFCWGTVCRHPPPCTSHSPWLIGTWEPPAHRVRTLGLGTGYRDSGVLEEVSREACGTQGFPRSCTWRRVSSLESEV
Experiment: Two-electrode voltage-clamp recordings in Xenopus laevis oocytes, GluN2C
Format: cell-based
Settings: oocytes, 100 μM glutamate and 30 μM glycine; read-out: GluN2C IC50
Collected log10(IC50) values appear next to each entry.
RECORDED METRIC: log10(IC50) (log10 of the value in µM)

{"COMPOUND": "O=C(O)CCC(=O)N1N=C(c2c(-c3ccc(Cl)s3)c3ccccc3[nH]c2=O)CC1c1ccc(Cl)cc1 (stereo not shown)", "log10(IC50)": -0.17}
{"COMPOUND": "O=C(O)CC(F)(F)C(=O)N1N=C(c2ccccc2-c2ccc(F)cc2F)CC1c1ccc(Cl)cc1 (stereo not shown)", "log10(IC50)": 1.13}
{"COMPOUND": "O=C(O)CC(F)(F)C(=O)N1N=C(c2ccccc2-c2ccc(Cl)cc2)CC1c1ccc(F)cc1 (stereo not shown)", "log10(IC50)": 1.08}
{"COMPOUND": "O=C(CC(F)(F)CO)N1N=C(c2c(-c3cccc(F)c3)c3ccccc3[nH]c2=O)CC1c1ccc(Cl)cc1 (stereo not shown)", "log10(IC50)": 0.63}
{"COMPOUND": "O=C(O)CCC(=O)N1N=C(c2c(-c3ccc(F)cc3)c3ccccc3[nH]c2=O)CC1c1ccc(F)cc1 (stereo not shown)", "log10(IC50)": 0.83}
{"COMPOUND": "Cc1ccc2[nH]c(=O)c(C3=NN(C(=O)C(F)(F)CC(=O)O)C(c4ccc(Cl)cc4)C3)c(-c3ccc(Cl)cc3)c2c1 (stereo not shown) [997-90]", "log10(IC50)": -0.40}
{"COMPOUND": "Cc1ccc2[nH]c(=O)c(C3=NN(C(=O)C(F)(F)CC(=O)O)C(c4ccc(Cl)cc4)C3)c(-c3ccc(Cl)cc3)c2c1 (single isomer, unassigned; (-)) [(−)-997-90]", "log10(IC50)": -0.70}

---

Collected pIC50 values appear next to each entry.
Target: recombinant rat GluN1/GluN2A (Rattus norvegicus, UniProt P35439+Q00959)
Sequence (Q00959 23-1464, other chains not shown): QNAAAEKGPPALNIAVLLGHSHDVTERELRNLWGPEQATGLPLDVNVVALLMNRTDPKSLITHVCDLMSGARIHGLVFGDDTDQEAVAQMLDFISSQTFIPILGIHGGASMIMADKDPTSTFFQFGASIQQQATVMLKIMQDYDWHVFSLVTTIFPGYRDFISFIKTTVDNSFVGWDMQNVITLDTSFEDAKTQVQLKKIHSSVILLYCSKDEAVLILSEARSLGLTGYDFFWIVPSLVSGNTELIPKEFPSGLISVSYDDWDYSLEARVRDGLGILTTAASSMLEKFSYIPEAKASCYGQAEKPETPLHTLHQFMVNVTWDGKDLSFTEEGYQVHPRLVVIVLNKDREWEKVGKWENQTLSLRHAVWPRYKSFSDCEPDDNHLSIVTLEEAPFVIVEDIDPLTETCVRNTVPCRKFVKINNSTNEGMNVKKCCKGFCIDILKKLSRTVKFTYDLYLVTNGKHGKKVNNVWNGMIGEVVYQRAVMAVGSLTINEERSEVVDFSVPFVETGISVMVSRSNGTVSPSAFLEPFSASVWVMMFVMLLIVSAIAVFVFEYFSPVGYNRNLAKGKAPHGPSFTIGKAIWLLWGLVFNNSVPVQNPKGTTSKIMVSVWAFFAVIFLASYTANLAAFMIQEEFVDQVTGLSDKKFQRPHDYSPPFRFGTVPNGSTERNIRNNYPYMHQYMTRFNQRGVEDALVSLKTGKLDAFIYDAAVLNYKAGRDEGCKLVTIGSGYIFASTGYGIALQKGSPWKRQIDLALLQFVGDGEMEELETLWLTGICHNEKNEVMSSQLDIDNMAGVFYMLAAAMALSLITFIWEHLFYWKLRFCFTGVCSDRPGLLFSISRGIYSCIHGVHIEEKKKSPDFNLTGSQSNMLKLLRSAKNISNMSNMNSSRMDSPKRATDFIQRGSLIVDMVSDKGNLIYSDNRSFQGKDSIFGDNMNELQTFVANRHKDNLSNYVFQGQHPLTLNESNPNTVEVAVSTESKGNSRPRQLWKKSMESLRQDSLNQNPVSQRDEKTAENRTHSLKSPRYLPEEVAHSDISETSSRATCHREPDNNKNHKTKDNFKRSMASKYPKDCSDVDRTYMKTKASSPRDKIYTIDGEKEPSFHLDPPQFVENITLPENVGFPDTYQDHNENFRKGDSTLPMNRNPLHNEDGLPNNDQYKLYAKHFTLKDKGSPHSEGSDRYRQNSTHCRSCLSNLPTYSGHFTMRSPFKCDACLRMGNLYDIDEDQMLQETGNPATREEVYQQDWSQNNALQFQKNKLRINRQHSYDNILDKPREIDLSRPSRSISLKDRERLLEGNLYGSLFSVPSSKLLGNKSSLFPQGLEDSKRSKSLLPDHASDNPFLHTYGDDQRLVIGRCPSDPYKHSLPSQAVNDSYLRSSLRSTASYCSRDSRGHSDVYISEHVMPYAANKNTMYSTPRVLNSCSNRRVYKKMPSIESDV
Assay: Two-electrode voltage-clamp recordings in Xenopus laevis oocytes, GluN2A
Details: oocytes, 100 μM glutamate and 30 μM glycine
pIC50: −log10 of the molar value.

{"MOLECULE": "O=C(O)CCC(=O)N1N=C(c2c(-c3ccc(Cl)cc3)c3ccccc3[nH]c2=S)CC1c1ccc(Cl)cc1 (stereo not shown) [997-97]", "TESTED TARGET": "recombinant rat GluN1/GluN2A (Rattus norvegicus, UniProt P35439+Q00959)", "pIC50": 4.80}
{"MOLECULE": "O=C(O)CC(F)(F)C(=O)N1N=C(c2c(-c3ccc(Cl)s3)c3ccccc3[nH]c2=O)CC1c1ccc(Cl)cc1 (stereo not shown) [997-109]", "TESTED TARGET": "recombinant rat GluN1/GluN2A (Rattus norvegicus, UniProt P35439+Q00959)", "pIC50": 5.59}
{"MOLECULE": "O=C(O)/C=C(/F)C(=O)N1N=C(c2c(-c3ccc(Cl)cc3)c3ccccc3[nH]c2=O)CC1c1ccc(Cl)cc1 (stereo not shown) [997-101]", "TESTED TARGET": "recombinant rat GluN1/GluN2A (Rattus norvegicus, UniProt P35439+Q00959)", "pIC50": 5.52}
{"MOLECULE": "Cc1ccc2[nH]c(=O)c(C3=NN(C(=O)C(F)(F)CC(=O)O)C(c4ccc(Cl)cc4)C3)c(-c3ccc(Cl)cc3)c2c1 (single isomer, unassigned; (-)) [(−)-997-90]", "TESTED TARGET": "recombinant rat GluN1/GluN2A (Rattus norvegicus, UniProt P35439+Q00959)", "pIC50": 5.72}
